- assay system: protein-protein interaction between SOS1 and KRAS G12C (Homo sapiens, UniProt P01116, C118S/C51S/C80L/G12C)
- Construct: His6 (N)
- Sequence (P01116 1-169 isoform P01116-2 G12C/C51S/C80L/C118S): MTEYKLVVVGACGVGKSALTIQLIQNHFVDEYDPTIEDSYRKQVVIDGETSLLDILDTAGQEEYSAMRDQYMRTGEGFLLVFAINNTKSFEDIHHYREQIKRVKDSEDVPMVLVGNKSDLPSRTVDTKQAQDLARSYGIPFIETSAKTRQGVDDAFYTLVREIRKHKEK
- test summary: KRAS::SOS1 AlphaScreen binding assay
- condition info: Table 36
outcome measure: IC50 (nM)

Reference set (4 entries):
[
  {
    "compound": "C=CC(=O)N1CC2(CCN(c3cc(-c4noc([C@@]5(C)CCCc6sc(N)c(C#N)c65)n4)nc(N4CCCN(C)C[C@@H]4C)n3)C2)C1 [Ia-94]",
    "IC50 / nM": 77
  },
  {
    "compound": "C=CC(=O)N1CCN(c2cc(-c3noc([C@@]4(C)CCCc5sc(N)c(C#N)c54)n3)nc(O[C@@H](C)[C@@H]3CCCN3C)n2)C2CCCC21 (stereo partly drawn) [Ia-60]",
    "IC50 / nM": 1.7
  },
  {
    "compound": "C=CC(=O)N1CCN(c2cc(-c3noc([C@@]4(C)CCCc5sc(N)c(C#N)c54)n3)nc(N3CCCN(CCOC)C[C@@H]3C)c2)CC1 [Ia-130]",
    "IC50 / nM": 7
  },
  {
    "compound": "C=CC(=O)N1CCN(c2cc(-c3noc([C@@]4(C)CCCc5sc(N)c(C#N)c54)n3)nc(O[C@@H](C)[C@@H]3CCCN3C)n2)CC1 [Ia-46]",
    "IC50 / nM": 1.7
  }
]

A: C=CC(=O)N1CCN(c2cc(-c3noc([C@@]4(C)CCCc5sc(N)c(C#N)c54)n3)nc(OC3C4CC5CN(C)C3C5C4)n2)CC1 (stereo partly drawn) [Ia-50]
B: C=CC(=O)N1CCCC(Oc2cc(-c3noc([C@@]4(C)CCCc5sc(N)c(C#N)c54)n3)nc(N3CCCN(C)C[C@@H]3C)c2)C1 (stereo partly drawn) [Ia-6]
Lookup: Looking at recorded values for IC50, does A or B come in lower? Give the label of your selection.
Found: A

----------
- assay system: protein-protein interaction between SOS1 and KRAS G12C (Homo sapiens, UniProt P01116, C118S/C51S/C80L/G12C)
- Construct: His6 (N)
- test summary: KRAS::SOS1 AlphaScreen binding assay
- condition info: Table 40
outcome measure: pIC50
pIC50 here: minus log base 10 of the concentration, concentration in moles per litre.

Lookup: Entry C=CC(=O)N1CCN(c2cc(-c3noc(C4(C)CCCc5sc(N)c(C#N)c54)n3)nc(N3CCNCC3)c2)CC1 (stereo not shown) has what pIC50?
Found: 7.06

----------
- assay system: KRASG12-dependent Ba/F3 cells (Homo sapiens, UniProt P01116, G12C, cells depend on it)
- Sequence (P01116 whole entry G12C): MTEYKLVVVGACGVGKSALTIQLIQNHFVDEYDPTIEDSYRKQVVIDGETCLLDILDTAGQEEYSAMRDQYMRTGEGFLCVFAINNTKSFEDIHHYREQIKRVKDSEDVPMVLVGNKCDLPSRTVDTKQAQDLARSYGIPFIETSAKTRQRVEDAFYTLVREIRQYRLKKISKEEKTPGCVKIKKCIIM
- test summary: Ba/F3 cell model proliferation assay (AlamarBlue, 72 h)
- Type: cell-based
- condition info: Ba/F3 cells transduced with KRASG12C, read-out: IC50 Ba/F3 KRASG12C
outcome measure: GI50 (nM)

[
  {
    "molecule": "C=CC(=O)N1CCN(c2cc(-c3noc(C4(C)CCc5sc(N)c(C#N)c54)n3)nc(O[C@@H](C)[C@@H]3CCCN3C)n2)CC1 (stereo partly drawn)",
    "GI50 [nM]": 15.4
  },
  {
    "molecule": "C=CC(=O)N1CCN(c2cc(-c3noc([C@@]4(C)CCCc5sc(N)c(C#N)c54)n3)nc(N3CCCN(CCOC)C[C@@H]3C)n2)CC1",
    "GI50 [nM]": 22.5
  },
  {
    "molecule": "C=CC(=O)N1CCN(c2cc(-c3noc([C@@]4(C)CCCc5sc(N)c(C#N)c54)n3)nc(O[C@@H](C)[C@@H]3CCCN3C)n2)CC1",
    "GI50 [nM]": 4.4
  },
  {
    "molecule": "C=CC(=O)N1CCN(c2nc(O[C@@H](C)[C@@H]3CCCN3C)nc(-c3noc([C@@]4(C)CCCc5sc(N)c(C#N)c54)n3)n2)CC1",
    "GI50 [nM]": 2.1
  },
  {
    "molecule": "C=CC(=O)N1CCC(Oc2cc(-c3noc(C4(C)CCCc5sc(N)c(C#N)c54)n3)nc(N3CCN(C)CC3)c2)CC1 (stereo not drawn)",
    "GI50 [nM]": 381
  },
  {
    "molecule": "C=CC(=O)N1[C@@H](C)CN(c2cc(-c3noc([C@@]4(C)CCCc5sc(N)c(C#N)c54)n3)nc(O[C@@H](C)[C@@H]3CCCN3C)n2)C[C@@H]1C",
    "GI50 [nM]": 1.2
  }
]

A: C[C@H](Oc1nc(-c2noc([C@@]3(C)CCCc4sc(N)c(C#N)c43)n2)cc(N2CCN(C/C=C/C(=O)N(C)C)CC2)n1)[C@@H]1CCCN1C
B: C=CC(=O)N1CCN(c2cc(-c3noc([C@@]4(C)CCCc5sc(N)c(C#N)c54)n3)nc(N3CCCN([C@@H]4CCOC4)C[C@@H]3C)n2)CC1
C: C=CC(=O)N1CCN(c2cc(-c3noc([C@@]4(C)CCCc5sc(N)c(C#N)c54)n3)nc(OC3CCC4CCN(C)C43)n2)CC1 (stereo partly drawn)
D: CC#CC(=O)N1CCN(c2cc(O[C@@H](C)[C@@H]3CCCN3C)nc(-c3noc([C@@]4(C)CCCc5sc(N)c(C#N)c54)n3)n2)CC12CC2
Lookup: Rank the items in ascending order with respect to GI50. Returns: the labels arranged in the requested order.
Found: B, D, C, A

A: C=CC(=O)N1CC[C@H](Oc2cc(O[C@@H](C)[C@@H]3CCCN3C)nc(-c3noc([C@@]4(C)CCCc5sc(N)c(C#N)c54)n3)c2)C1
B: C=CC(=O)N1CCN(c2cc(O[C@@H](C)[C@@H]3CCCN3C)nc(-c3noc([C@@]4(C)CCCc5sc(N)c(C#N)c54)n3)c2)CC1
Lookup: Task for the reader: decide whether A or B has the larger GI50. Give the label of your selection.
Found: A
(A: 17.3 nM, B: 3.3 nM)

----------
- assay system: protein-protein interaction between SOS1 and KRAS G12C (Homo sapiens, UniProt P01116, C118S/C51S/C80L/G12C)
- Construct: His6 (N)
- test summary: KRAS::SOS1 AlphaScreen binding assay
- condition info: Table 36
- Procedure: KRAS::SOS1 AlphaScreen Binding Assay Assay buffer: • 1×PBS • 0.1% BSA • 0.05% Tween 20 […] After 30 minutes incubation time 5 μL of bead mix is added into columns 1-23. […] After further 60 minutes incubation, the signal is measured using a PerkinElmer Envision HTS Multilabel Reader using the AlphaScreen specifications from PerkinElmer. […] IC50 values are calculated and analyzed using a 4 parametric logistic model.
outcome measure: IC50 (µM)

Reference set (2 entries):
[
  {
    "molecule": "C=CC(=O)N1CCN(c2cc(-c3noc([C@@]4(C)CCCc5sc(N)c(C#N)c54)n3)nc(OC3CC4(CCN(C)C4)C3)n2)CC1 (stereo partly shown)",
    "unit name": "µM",
    "IC50": 0.023
  },
  {
    "molecule": "C=CC(=O)N1C[C@H](Oc2cc(O[C@@H](C)[C@@H]3CCCN3C)nc(-c3noc([C@@]4(C)CCCc5sc(N)c(C#N)c54)n3)c2)[C@H]1C",
    "unit name": "µM",
    "IC50": 0.0016
  }
]

I: C=CC(=O)N1CCN(c2cc(-c3noc(C4(C)CCCc5sc(N)c(C#N)c54)n3)nc(N3CCC(N4CC[C@H](F)C4)CC3)c2)CC1 (stereo partly shown)
II: C=CC(=O)N1CC[C@@H](Oc2cc(O[C@@H](C)[C@@H]3CCCN3C)nc(-c3noc([C@@]4(C)CCCc5sc(N)c(C#N)c54)n3)c2)C1
Lookup: Looking at recorded values for IC50, does I or II come in lower? Give the label of your selection.
Found: II

----------
- assay system: protein-protein interaction between SOS1 and KRAS G12C (Homo sapiens, UniProt P01116, C118S/C51S/C80L/G12C)
- Construct: His6 (N)
- test summary: KRAS::SOS1 AlphaScreen binding assay
- condition info: Table 36
outcome measure: IC50 (nM)

[
  {
    "molecule": "C=CC(=O)N1CC(Oc2cc(O[C@@H](C)[C@@H]3CCCN3C)nc(-c3noc([C@@]4(C)CCCc5sc(N)c(C#N)c54)n3)c2)C1",
    "IC50 (nM)": 1.2
  },
  {
    "molecule": "C=CC(=O)N(C)c1cccc(-c2cc(-c3noc(C4(C)CCCc5sc(N)c(C#N)c54)n3)nc(N3CCN(C)CC3)c2)c1 (stereo not drawn)",
    "IC50 (nM)": 1190
  },
  {
    "molecule": "C=CC(=O)N1C[C@H](C)N(c2cc(-c3noc([C@@]4(C)CCCc5sc(N)c(C#N)c54)n3)nc(O[C@@H](C)[C@@H]3CCCN3C)n2)C[C@H]1C",
    "IC50 (nM)": 12
  },
  {
    "molecule": "C=CC(=O)N1CCN(c2cc(-c3noc(C4(C)CCC(C)c5sc(N)c(C#N)c54)n3)nc(N3CCN(CC4CC4)CC3)c2)CC1 (stereo not drawn)",
    "IC50 (nM)": 180
  }
]

P: C=CC(=O)N1CCN(c2cc(-c3noc([C@@]4(C)CCCc5sc(N)c(C#N)c54)n3)nc(N3CCCN(CCCOC)C[C@@H]3C)n2)CC1
Q: C=CC(=O)N1CC[C@@H](Oc2cc(-c3noc([C@@]4(C)CCCc5sc(N)c(C#N)c54)n3)nc(N3CCN(C)CC3)c2)C1
Lookup: Looking at recorded values for IC50, does P or Q come in lower? Give the label of your selection.
Found: P
